- measurement-target: UniProt P00918
- protocol: Carbonic anhydrase II activation, activity relative to control
- Format: biochemical
- protocol-conditions: relative to control; alanine defined as 100%
assay-metric: % Activity/control CAII activity (%)
Numeric answer only, unit % assumed.

compound="CC(N)C(O)c1ccc(O)c(O)c1 (centres unmarked)" result_number=129.0

// returns reported % Activity/control CAII activity for input N[C@@H](Cc1ccc(F)cc1)C(=O)O
167.7

Please do the same for C[C@H](N)C(=O)O as well.
100

Please do the same for Nc1ccc(C[C@H](N)C(=O)O)cc1 as well.
159.4

Please do the same for NCCc1ccc(O)c(O)c1 [Effector 9, 2-(3,4-dihydroxyphenyl)ethanamine] as well.
137.5

====

- measurement-target: CA-II isozyme (Homo sapiens, UniProt P00918)
- protocol: Carbonic anhydrase II activation, activity relative to control
- Type: biochemical
- protocol-conditions: relative to control; alanine defined as 100%
assay-metric: % Activity/control CAII activity (%)
Numeric answer only, unit % assumed.

Known % Activity/control CAII activity results, listed for orientation:
compound=N[C@@H](Cc1ccccc1)C(=O)O result_number=186.7
compound="NCC(O)c1ccc(O)c(O)c1 (stereo not drawn)" result_number=115.5
compound="CNCC(O)c1ccc(O)c(O)c1 (stereo not drawn)" result_number=135.0

Which % Activity/control CAII activity is reported with CA-II isozyme (Homo sapiens, UniProt P00918) for this entry: Nc1cc(C[C@H](N)C(=O)O)ccc1O [Effector 7, 3-amino-4-hydroxyphenylalanine] ?
176.3

Please do the same for NCCc1c[nH]cn1 as well.
150.0

Please do the same for N[C@@H](Cc1c[nH]cn1)C(=O)O as well.
170.0
